Catalogue of protein stability index readings, one per entry.
Experiment: protein stability index of a GFP-peptide fusion (GPS, HEK-293T) (PSI 1-6); higher = more stable;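 further: 24-mer peptide tiles fused after GFP, lentivirally expressed, FACS-sorted into six equal bins by GFP/DsRed ratio, decoded by Illumina sequencing, PSI is the read-weighted mean bin number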
Conditions: treatment: DMSO; c terminus: a fixed tail appended

Worked cases, protein stability index given:
- NVGRVHRVAKKLQSGLVWTNCWLI [ALDH8A1]: 3.04
- RAGEGFIICYSITDRRSFHEVREF [RIT1]: 3.04
- LNRALSNLSSRWKNWWVRGILTLA [CDS2]: 3.17
- PGITRVYSIGRSVEGRHLYVLEFS [CPN1]: 3.12
- FKRSTGTWHHTKPLLPSDLRRTGC [GAN]: 2.78

Please look at the following sequence next.
I would be grateful if you could share the reported protein stability index for LVNHVNIRLQAELEEGENPVPAFQ [SMG5] .
4.04
